Data provenance is paper PMC12440775.

assay: Single ascending dose plasma pharmacokinetics (Part 1); format: in vivo, human; conditions: male, human, plasma, po, 120 mg; read-out: Cmax

>  <Sample Smiles>
C=C[C@@H]1C[C@]1(NC(=O)[C@@H]1C[C@@H](Oc2cc(-c3csc(NC(=O)C(C)C)n3)nc3c(Br)c(OC)ccc23)CN1C(=O)[C@@H](NC(=O)OC1CCCC1)C(C)(C)C)C(=O)O

>  <Cmax (ng/mL)>
344

$$$$

----------
assay: Single ascending dose plasma pharmacokinetics (Part 1); format: in vivo, human; details: male, human, plasma, po, 16 mg; read-out: tmax

>  <Sample Smiles>
C=C[C@@H]1C[C@]1(NC(=O)[C@@H]1C[C@@H](Oc2cc(-c3csc(NC(=O)C(C)C)n3)nc3c(Br)c(OC)ccc23)CN1C(=O)[C@@H](NC(=O)OC1CCCC1)C(C)(C)C)C(=O)O

>  <Tmax [h]>
8

$$$$

----------
Test: Single ascending dose plasma pharmacokinetics (Part 1)
Type: in vivo, human
Conditions: male, human, plasma, po, 240 mg; read-out: Cmax
Method: One dose level was tested within each group. Subject groups were dosed and evaluated sequentially, beginning with the lowest-dose group and proceeding stepwise to the highest-dose group. Blood samples were taken pre-dose (0) and at prespecified time points after dosing (Figure 1). At each time point, approximately 4.9 mL of blood was drawn into evacuated collection tubes, containing ethylene diamine tetraacetate (EDTA) anticoagulant and labeled with sample identification information. […]

>  <Sample Smiles>
C=C[C@@H]1C[C@]1(NC(=O)[C@@H]1C[C@@H](Oc2cc(-c3csc(NC(=O)C(C)C)n3)nc3c(Br)c(OC)ccc23)CN1C(=O)[C@@H](NC(=O)OC1CCCC1)C(C)(C)C)C(=O)O

>  <Readout Units>
ng/mL

>  <Cmax>
2070

$$$$

----------
experiment: Food effect on relative bioavailability of 480 mg FDV, two-period crossover (Part 2); type: in vivo, human; settings: male, human, plasma, oral, 480 mg, FDV 480 mg/fed; mean (CV%), N = 7

>  <Sample Smiles>
C=C[C@@H]1C[C@]1(NC(=O)[C@@H]1C[C@@H](Oc2cc(-c3csc(NC(=O)C(C)C)n3)nc3c(Br)c(OC)ccc23)CN1C(=O)[C@@H](NC(=O)OC1CCCC1)C(C)(C)C)C(=O)O

>  <AUC(0-t), ng·h/mL>
92000

$$$$

----------
test: Single ascending dose plasma pharmacokinetics (Part 1); assay type: in vivo, human; details: male, human, plasma, po, 480 mg; read-out: Cmax
Measurement Type: Cmax

>  <Molecule>
C=C[C@@H]1C[C@]1(NC(=O)[C@@H]1C[C@@H](Oc2cc(-c3csc(NC(=O)C(C)C)n3)nc3c(Br)c(OC)ccc23)CN1C(=O)[C@@H](NC(=O)OC1CCCC1)C(C)(C)C)C(=O)O [FDV, Faldaprevir]

>  <Observed Result>
4.3 µg/mL

$$$$

----------
experiment: Single ascending dose plasma pharmacokinetics (Part 1); format: in vivo, human; conditions: male, human, plasma, po, 1200 mg

>  <Sample Smiles>
C=C[C@@H]1C[C@]1(NC(=O)[C@@H]1C[C@@H](Oc2cc(-c3csc(NC(=O)C(C)C)n3)nc3c(Br)c(OC)ccc23)CN1C(=O)[C@@H](NC(=O)OC1CCCC1)C(C)(C)C)C(=O)O

>  <AUC(0-t), µg·h/mL>
397

$$$$
